experimental-target: furin, P09958;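 further: purified furin at 1:10 enzyme:substrate in 50 mM HEPES pH 7.5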
Sequence (P09958 whole entry): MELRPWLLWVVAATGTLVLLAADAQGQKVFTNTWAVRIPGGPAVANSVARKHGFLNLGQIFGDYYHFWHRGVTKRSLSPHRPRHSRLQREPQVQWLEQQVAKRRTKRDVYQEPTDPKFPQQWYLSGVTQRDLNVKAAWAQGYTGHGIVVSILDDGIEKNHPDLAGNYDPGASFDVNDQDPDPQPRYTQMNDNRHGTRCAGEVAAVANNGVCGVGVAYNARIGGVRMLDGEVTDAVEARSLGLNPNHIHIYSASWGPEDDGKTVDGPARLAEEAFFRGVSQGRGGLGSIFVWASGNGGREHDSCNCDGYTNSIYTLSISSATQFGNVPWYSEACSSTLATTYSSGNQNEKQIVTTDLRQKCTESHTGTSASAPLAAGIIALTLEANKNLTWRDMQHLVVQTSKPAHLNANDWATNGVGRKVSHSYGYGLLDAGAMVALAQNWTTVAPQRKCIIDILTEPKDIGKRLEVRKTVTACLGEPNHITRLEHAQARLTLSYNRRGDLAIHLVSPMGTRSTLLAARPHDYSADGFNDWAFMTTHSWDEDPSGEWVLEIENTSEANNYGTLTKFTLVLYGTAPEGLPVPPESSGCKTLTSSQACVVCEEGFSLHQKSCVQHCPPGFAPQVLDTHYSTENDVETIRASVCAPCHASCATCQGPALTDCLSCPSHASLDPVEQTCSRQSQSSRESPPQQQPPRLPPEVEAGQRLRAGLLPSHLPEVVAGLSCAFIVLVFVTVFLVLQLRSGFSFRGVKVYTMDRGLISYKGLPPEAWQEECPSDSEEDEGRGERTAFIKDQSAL
protocol-details: furin cleavage Z-score vs untreated control; higher = more cleavage, active = 3.5 or more, inactive = 1 or less, 8 variable residues between constant flanks
reported-conditions: 15 min
Some of the results follow. The true hit rate is not given.
outcome-measure: furin cleavage Z-score
Just the number, please, no unit attached.

Task item: For the sequence CAESDAAARVAGNASASA [HC1129] , what furin cleavage Z-score is on record?
Reply: -0.591

Task item: Now give it for CATTGCSGSWAGNASASA [HC1876] too.
Reply: -0.493

Task item: Now give it for CAGERRRRRAAGNASASA [FS-996] too.
Reply: 8.15

Task item: Now give it for CAIEPRSFSQAGNASASA [TR3] too.
Reply: -1.14

Task item: Now give it for CAGALVAFKIAGNASASA [HC1091] too.
Reply: -0.999

Task item: Now give it for CAGAGAGAGAAGNASASA [NE4] too.
Reply: -0.739

Task item: Now give it for CAPERRDVCWAGNASASA [FS-1677] too.
Reply: -1.12

Task item: Now give it for CAPAPPRRRAAGNASASA [FS-1041] too.
Reply: 0.595

Task item: Now give it for CAHAPTGSGKAGNASASA [HC775] too.
Reply: -1.05

Task item: Now give it for CAYCLSTGCVAGNASASA [HC997] too.
Reply: 0.0405

Task item: Now give it for CAAVPRLRRDAGNASASA [FS-644] too.
Reply: 12.1

Task item: Now give it for CAHHQRRRRAAGNASASA [FS-907] too.
Reply: 6.66

Task item: Now give it for CASWERPRRPAGNASASA [FS-876] too.
Reply: -0.626

Task item: Now give it for CAACLRKLGVAGNASASA [HC1614] too.
Reply: -0.95

Task item: Now give it for CALKRRDRRMAGNASASA [FS-1227] too.
Reply: 13.4
